Assignment: determine reported TGI for the given compounds.
Tested on: NCI-H23 lung
method_summary: NCI tumour cell line growth inhibition, 48 h

These recorded examples may help you get a feel for the data.
C[N+](C)(C)CC(=O)N/N=C(\Cc1nc2ccc([N+](=O)[O-])cc2[nH]c1=O)C(=O)Nc1nc2ccc([N+](=O)[O-])cc2s1 : > 100 µM
C=C(C)[C@H]1CC[C@@]23O[C@@H]2[C@@H](C[C@@]2(C)CC(=O)[C@H](CC(=O)C1)O2)OC(=O)[C@@]12CC[C@H](C(=C)C)CC(=O)C[C@H]4O[C@](C)(CC4=O)C[C@@H](OC3=O)[C@@H]1O2 : > 100 µM
O=Cc1cn(CCCCCCCCn2cc(C=O)c3ccccc32)c2ccccc12 : > 10 µM
CC1(C)Cc2c(sc3[nH]c(=S)[nH]c(=S)c23)CS1 : > 100 µM
Cc1cccc(NC(=O)C(=O)C(C2OC(=O)c3ccccc32)[N+](=O)[O-])c1C (centres undefined) : 18.9 µM
O=c1[nH]c2c(c(=O)[nH]1)SC(c1ccccc1)C2 (centres undefined) : > 100 µM
CN1CCC2(c3ccccc3)CC(=O)/C(=C/c3ccc(Cl)c(Cl)c3)C1C2 (centres undefined) : 8.45 µM
CC1(C)c2ccccc2N2C(c3ccccc3)=NOC21C (centres undefined) : > 100 µM

Moving on to the next compound.
Fill in: TGI of `CN(C)NC(=O)/C(=C/c1ccc(Cl)cc1)NC(=O)c1ccccc1` is ___ > 100 µM

====

Tested on: ACHN renal
method_summary: NCI tumour cell line growth inhibition, 48 h
endpoint_name: TGI

These recorded examples may help you get a feel for the data.
Cc1c(C(=O)c2ccccc2)[n+](=O)c2cc(Cl)c(Cl)cc2n1[O-] : 28.5 µM
Cc1cc(=O)oc2c1cc1ccc3cccc4ccc2c1c34 : > 100 µM
Cc1ccc(S(=O)(=O)OCOS(=O)(=O)c2ccc(C)cc2)cc1 : > 100 µM
CCCCN=NNc1cn(C2OC(CO)C(O)C2O)c(=O)[nH]c1=O (stereo unspecified) : > 100 µM
N=c1oc2ccccc2cc1C(=O)Nc1cccc2ccccc12 : > 100 µM

Fill in: TGI of `CCN(CC)C(=O)CCn1cc(F)c(=O)[nH]c1=O` is ___ > 100 µM

====

Assignment: determine reported TGI for the given compounds.
System: A498 renal
method_summary: NCI tumour cell line growth inhibition, 48 h

These recorded examples may help you get a feel for the data.
CCc1n[nH]c(=O)n1CC : > 100 µM
COC(=O)[C@@H]1C[C@@H](O)CN1C(=O)c1ccc([N+](=O)[O-])cc1[N+](=O)[O-] : > 100 µM
CN(C)NC(=O)/C(=C/c1ccc(Cl)cc1)NC(=O)c1ccccc1 : > 100 µM
COc1cc(S(=O)(=O)Nc2ccc(-c3csc(N4C(=O)C(C)SC4c4cccs4)n3)cc2)ccc1Cl (configuration not stated) : > 100 µM
c1ccc(-c2[nH]ncc2-c2ccnc(-c3ccc(OCCN4CCOCC4)cc3)c2)nc1 : > 25 µM
CCc1nc(C)cn1C(=O)OCc1nc2nc(Cl)nc(N3CCOCC3)c2[nH]1 : 3.54 µM
Cc1[nH]c(C)c(CN(C)C)c1CN(C)C : > 100 µM
O=C1C=C(c2ccccc2)OC1C1Sc2ccccc2NC1=O (configuration not stated) : > 31.5 µM

Hi! Can you tell me TGI for each of these compounds?
1. Cc1ccccc1NC(=O)/C(=N\NC(N)=S)C(C#N)c1ccccc1 (configuration not stated)
2. N#Cc1c(Cl)cc(C#N)n2c1nc1ccccc12

1: > 100 µM; 2: 49.9 µM

Hi! Can you tell me TGI for each of these compounds?
1. O=C(OCc1ccccc1)C(Cc1ccc(OCc2ccccc2)cn1)NC(=O)C(F)(F)F (configuration not stated)
2. CC1(C)OCC(CO)(CO)CO1
3. COC(=O)c1cc(CC2Cc3cc4c(cc3C2=O)CCC4)cc2c1CCC2 (configuration not stated)
4. O=C(NN1C(=O)CS(=O)(=O)C1c1ccc(Cl)c(Cl)c1)c1ccncc1 (configuration not stated)
5. COCn1cc(C2=C(C)C(=O)C(C)=C(C)C2=O)cn1

["> 100 µM", "> 100 µM", "> 100 µM", "> 100 µM", "> 100 µM"]

Hi! Can you tell me TGI for each of these compounds?
1. C=C(C)C1CC[C@@](C)(O)[C@H](C#N)C1 (some centres not stated)
2. Oc1ccc2c(=S)cc(-c3ccc(Br)cc3)oc2c1O
3. CCOC(=O)C1=C(C)N(c2ccc(Cl)cc2)C2(O)C=CC(=O)C3=C(O)c4ccccc4C(=O)C312 (configuration not stated)
4. CC(=O)OCC1OC(n2c(C)c(C(C)=O)c(-c3ccco3)c(C#N)c2=S)C(OC(C)=O)C(OC(C)=O)C1OC(C)=O (configuration not stated)
5. CN(C)c1ccc(/C=C(\C#N)c2cc3ccccc3[nH]2)cc1
6. Cc1cccc(NC(=O)C(=O)C(C2OC(=O)c3ccccc32)[N+](=O)[O-])c1C (configuration not stated)
7. COc1cccc(Nc2ncnc3cc(NC(=O)CCl)ccc23)c1

> 100 µM
7.46 µM
30 µM
> 100 µM
6.61 µM
32 µM
3.81 µM
